Assay: Determination of the solubility of anthraquinone derivatives in xylene/diisobutylcarbinol
Settings: xylene/diisobutylcarbinol mixture (50:50 by volume)
endpoint: Solubility (mM)
Give a bare numeral; the unit mM is implied.

Fill blank: measured Solubility of the compound "CC(C)=CCc1ccc2c(c1)C(=O)c1ccccc1C2=O" is ____.
770
